Test system: mice
Conditions: mouse, in vivo, po
endpoint_name: Diarrhoea-inducing Activity Mice (p.o.), relative to PGE1 taken as 1
Give bare numbers.

Known Diarrhoea-inducing Activity Mice (p.o.), relative to PGE1 taken as 1 results, listed for orientation:
molecule	observed_measurement
CCCCCC(CC)C[C@H](O)/C=C/[C@H]1[C@H](O)CC(=O)[C@@H]1CCCC/C=C/C(=O)O (some centres unmarked) [D, reference compound]	3.2
CCCCCC(CC)C[C@H](O)/C=C/[C@H]1[C@H](O)CC(=O)[C@@H]1CCCC/C=C/C(=O)OC (some centres unmarked) [E, reference compound]	1.7
CCCC[C@@H](C)[C@H](O)/C=C/[C@H]1[C@H](O)CC(=O)[C@@H]1CCCC/C=C/C(=O)O [A, reference compound]	270.6

Consider the additional molecule presented here.
State the recorded Diarrhoea-inducing Activity Mice (p.o.), relative to PGE1 taken as 1 for this entry: CC(c1ccccc1)[C@H](O)/C=C/[C@H]1[C@H](O)CC(=O)[C@@H]1CCCC/C=C/C(=O)O (some centres unmarked) [C, reference compound]
11.9

* * *

System: isolated rabbit hearts
Experiment: coronary vasodilator activity on isolated rabbit hearts
Details: Rabbit; relative to PGE1 = 1
Answer NO if Vasodilator Activity Rabbit, relative to PGE1 taken as 1 is under 1, and YES if it is 1 or more.

compound	category
CCCCCC(CC)C[C@H](O)/C=C/[C@H]1[C@H](O)CC(=O)[C@@H]1CCCC/C=C/C(=O)O (stereo partly shown) [D, reference compound]	NO
CCCC[C@H](C)C[C@H](O)/C=C/[C@H]1[C@H](O)CC(=O)[C@@H]1CCCC/C=C/C(=O)O [F]	YES
CCCCCC(CC)C[C@H](O)/C=C/[C@H]1[C@H](O)CC(=O)[C@@H]1CCCC/C=C/C(=O)OC (stereo partly shown) [E, reference compound]	NO
CC(c1ccccc1)[C@H](O)/C=C/[C@H]1[C@H](O)CC(=O)[C@@H]1CCCC/C=C/C(=O)O (stereo partly shown) [C, reference compound]	NO

// inclusive: Vasodilator Activity Rabbit, relative to PGE1 taken as 1 at least 1? input: CCCC[C@@H](C)C[C@H](O)/C=C/[C@H]1[C@H](O)CC(=O)[C@@H]1CCCC/C=C/C(=O)O [G]
YES
